Data credit: patent US5215979A

Test system: thymus
Experiment: Thymus weight recorded in the Sephadex model (systemic effect)
Type: in vivo, Sprague-Dawley rats
Conditions: dose 10 mg/kg; relative to Sephadex control group
Provide the reported Thymus involution % (dose mg/kg) of each item.
Please state the figure in %; there is no need to write the unit.

Lab note: need Thymus involution % (dose mg/kg) with thymus for entry CCC[C@@H]1O[C@@H]2C[C@H]3[C@@H]4C[C@H](F)C5=CC(=O)C=C[C@]5(C)[C@@]4(F)[C@@H](O)C[C@]3(C)[C@]2(C(=O)C(=O)OCC)O1 , please look it up.
15

Lab note: need Thymus involution % (dose mg/kg) with thymus for entry CCCOC(=O)C(=O)[C@@]12O[C@H](CCC)O[C@@H]1C[C@H]1[C@@H]3C[C@H](F)C4=CC(=O)C=C[C@]4(C)[C@@]3(F)[C@@H](O)C[C@@]12C , please look it up.
6

Lab note: need Thymus involution % (dose mg/kg) with thymus for entry CCC[C@@H]1O[C@@H]2C[C@H]3[C@@H]4C[C@H](F)C5=CC(=O)C=C[C@]5(C)[C@@]4(F)[C@@H](O)C[C@]3(C)[C@]2(C(=O)C(=O)OC)O1 , please look it up.
-3

Lab note: need Thymus involution % (dose mg/kg) with thymus for entry CCCCOC(=O)C(=O)[C@H]1[C@H](C)C[C@H]2[C@@H]3C[C@H](F)C4=CC(=O)C=C[C@]4(C)[C@H]3[C@@H](O)C[C@@]21C , please look it up.
6

Lab note: need Thymus involution % (dose mg/kg) with thymus for entry CCC[C@@H]1O[C@@H]2C[C@H]3[C@@H]4C[C@H](F)C5=CC(=O)C=C[C@]5(C)[C@@]4(F)[C@@H](O)C[C@]3(C)[C@]2(C(=O)C(=O)OC(C)C)O1 , please look it up.
-1
